Molecular target: Lactoylglutathione lyase (Homo sapiens, UniProt Q04760)
Test: Inhibition of recombinant human N-terminal Met and 6-His-tagged Glyoxalase-1 (Ala2 to Met184 residues) at 25 uM using glutathione and methylglyoxal as substrates preincubated for 15 mins followed by enzyme addition by double beam UV-vis spectrophotometric method relative to control
Sequence (Q04760 2-184 limits assumed): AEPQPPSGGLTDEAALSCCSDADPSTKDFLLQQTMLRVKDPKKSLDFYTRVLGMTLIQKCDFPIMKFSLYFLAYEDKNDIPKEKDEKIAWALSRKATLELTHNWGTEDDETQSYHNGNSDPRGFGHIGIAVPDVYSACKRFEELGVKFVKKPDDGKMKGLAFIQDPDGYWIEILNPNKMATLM
// thresholds for inhibition classes: low group: < 60%; middle group: ≥ 60% and < 80%; high group: ≥ 80%

Worked set:
item smiles	label class
Cc1ccc(/N=N/c2ccc(O)c3ncccc23)cc1S(N)(=O)=O	high group
Cc1ccc(/N=N/c2ccc(N)c3ccc(O)cc23)cc1S(N)(=O)=O	middle group
Cc1ccc(/N=N/c2ccc(N)c3ccccc23)cc1S(N)(=O)=O	low group
Nc1ccc(/N=N/c2cccc(S(N)(=O)=O)c2)c2ccc(O)cc12	middle group
Cc1ccc(/N=N/c2ccc(N)c3cc(O)ccc23)cc1S(N)(=O)=O	low group

In: Given NS(=O)(=O)c1cccc(/N=N/c2cc(C(=O)O)c(O)c3ccccc23)c1 , name the class its inhibition places it in.
Out: high group

In: Given Cc1ccc(/N=N/c2c(O)ccc3cccc(N)c23)cc1S(N)(=O)=O , name the class its inhibition places it in.
Out: low group

In: Given NS(=O)(=O)c1cccc(/N=N/c2c(O)ccc3ccccc23)c1 , name the class its inhibition places it in.
Out: low group

In: Given Oc1ccc(/N=N/c2ccccc2)c2cccnc12 , name the class its inhibition places it in.
Out: high group

In: Given NS(=O)(=O)c1cccc(/N=N/c2ccc(O)c(C(=O)O)c2)c1 , name the class its inhibition places it in.
Out: middle group

In: Given NS(=O)(=O)c1cccc(/N=N/c2ccc(O)c3ccccc23)c1 , name the class its inhibition places it in.
Out: low group

In: Given Cc1ccc(/N=N/c2cc(C(=O)O)c(O)c3ccccc23)cc1S(N)(=O)=O , name the class its inhibition places it in.
Out: high group

---

Readings of pIC50 for the listed compounds
Biological target: Lactoylglutathione lyase (Homo sapiens, UniProt Q04760)
Experiment: Inhibition of recombinant human N-terminal Met and 6-His-tagged Glyoxalase-1 (Ala2 to Met184 residues) using glutathione and methylglyoxal as substrates preincubated for 15 mins followed by enzyme addition by double beam UV-vis spectrophotometric method
Sequence (Q04760 whole entry): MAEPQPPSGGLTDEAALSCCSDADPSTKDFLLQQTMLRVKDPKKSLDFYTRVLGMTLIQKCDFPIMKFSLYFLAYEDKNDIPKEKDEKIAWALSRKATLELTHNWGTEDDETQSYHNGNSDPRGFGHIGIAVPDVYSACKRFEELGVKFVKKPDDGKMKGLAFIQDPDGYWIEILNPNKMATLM
// pIC50 here means minus log10 of the molar concentration (mol/L)

item smiles	measurement kind	recorded measurement
Cc1ccc(/N=N/c2ccc(O)c3ncccc23)cc1S(N)(=O)=O	pIC50	5.89
NS(=O)(=O)c1cccc(/N=N/c2cc(C(=O)O)c(O)c3ccccc23)c1	pIC50	5.91
NS(=O)(=O)c1cccc(/N=N/c2ccc(O)c(C(=O)O)c2)c1	pIC50	5.06
Cc1ccc(/N=N/c2cc3ccccc3c(C=O)c2O)cc1S(N)(=O)=O	pIC50	4.73

Attention now shifts to the item below.
In: I'd like to know its pIC50. The compound in question is NS(=O)(=O)c1cccc(/N=N/c2c(O)ccc3ccccc23)c1
Out: 4.43

---

Target: Lactoylglutathione lyase (Homo sapiens, UniProt Q04760)
Assay: Inhibition of recombinant human N-terminal Met and 6-His-tagged Glyoxalase-1 (Ala2 to Met184 residues) at 25 uM using glutathione and methylglyoxal as substrates preincubated for 15 mins followed by enzyme addition by double beam UV-vis spectrophotometric method relative to control
Readings of inhibition for the listed compounds
Please state the value followed by its unit.

In the examples that follow, each entry is paired with its recorded inhibition.
item smiles	assay target	recorded measurement
Cc1ccc(/N=N/c2cc3ccc(=O)oc3cc2O)cc1S(N)(=O)=O	Lactoylglutathione lyase (Homo sapiens, UniProt Q04760)	59%
O=C(O)c1ccc(/N=N/c2ccc(O)c3ncccc23)cc1	Lactoylglutathione lyase (Homo sapiens, UniProt Q04760)	79.9%
O=S(=O)(O)c1ccc(/N=N/c2ccc(O)c3ncccc23)cc1	Lactoylglutathione lyase (Homo sapiens, UniProt Q04760)	75%
NS(=O)(=O)c1cccc(/N=N/c2ccc(O)c3ncccc23)c1	Lactoylglutathione lyase (Homo sapiens, UniProt Q04760)	98.3%

In: I'd like to know its inhibition. The compound in question is NS(=O)(=O)c1cccc(/N=N/c2ccc(O)cc2)c1
Out: 59.9%

In: I'd like to know its inhibition. The compound in question is Cc1ccc(/N=N/c2ccc(O)c(C(=O)O)c2)cc1S(N)(=O)=O
Out: 67.7%

In: I'd like to know its inhibition. The compound in question is Nc1ccc(/N=N/c2cccc(S(N)(=O)=O)c2)c2ccccc12
Out: 28.1%

In: I'd like to know its inhibition. The compound in question is Cc1ccc(/N=N/c2c(O)ccc3ccccc23)cc1S(N)(=O)=O
Out: 34.5%

In: I'd like to know its inhibition. The compound in question is NS(=O)(=O)c1cccc(/N=N/c2cc3ccc(=O)oc3cc2O)c1
Out: 64.4%

In: I'd like to know its inhibition. The compound in question is Cc1ccc(/N=N/c2cc3ccccc3c(C=O)c2O)cc1S(N)(=O)=O
Out: 57.4%

In: I'd like to know its inhibition. The compound in question is O=C(O)c1cccc(/N=N/c2ccc(O)c3ncccc23)c1
Out: 90.7%

---

Readings of IC50 for the listed compounds
Target: Lactoylglutathione lyase (Homo sapiens, UniProt Q04760)
Assay: Inhibition of recombinant human N-terminal Met and 6-His-tagged Glyoxalase-1 (Ala2 to Met184 residues) using glutathione and methylglyoxal as substrates preincubated for 15 mins followed by enzyme addition by double beam UV-vis spectrophotometric method
Numbers only here, please. The scale is µM.

In the examples that follow, each entry is paired with its recorded IC50.
item smiles	IC50 / µM
O=C(O)c1ccc(/N=N/c2ccc(O)c3ncccc23)cc1	4.45
Cc1ccc(/N=N/c2c(O)ccc3cccc(N)c23)cc1S(N)(=O)=O	24

In: I'd like to know its IC50. The compound in question is O=S(=O)(O)c1ccc(/N=N/c2ccc(O)c3ncccc23)cc1
Out: 9.7

---

Target: Lactoylglutathione lyase (Homo sapiens, UniProt Q04760)
Assay: Inhibition of recombinant human N-terminal Met and 6-His-tagged Glyoxalase-1 (Ala2 to Met184 residues) using glutathione and methylglyoxal as substrates preincubated for 15 mins followed by enzyme addition by double beam UV-vis spectrophotometric method
// thresholds for IC50 classes: LOW (below 10 µM), MEDIUM (10 µM to below 20 µM), HIGH (20 µM or more)

Worked set:
item smiles	label class
Cc1ccc(/N=N/c2cc3ccccc3c(C(=O)O)c2O)cc1S(N)(=O)=O	HIGH
Cc1ccc(/N=N/c2c(O)ccc3ccccc23)cc1S(N)(=O)=O	HIGH
NS(=O)(=O)c1cccc(/N=N/c2ccc(O)cc2)c1	MEDIUM

In: Given O=C(O)c1cccc(/N=N/c2ccc(O)c3ncccc23)c1 , name the class its IC50 places it in.
Out: LOW

In: Given Cc1ccc(/N=N/c2ccc(N)c3cc(O)ccc23)cc1S(N)(=O)=O , name the class its IC50 places it in.
Out: MEDIUM

In: Given Cc1ccc(/N=N/c2cc3ccc(=O)oc3cc2O)cc1S(N)(=O)=O , name the class its IC50 places it in.
Out: MEDIUM

In: Given Oc1ccc(/N=N/c2ccccc2)c2cccnc12 , name the class its IC50 places it in.
Out: LOW

In: Given Cc1ccc(/N=N/c2ccc(O)c(C(=O)O)c2)cc1S(N)(=O)=O , name the class its IC50 places it in.
Out: MEDIUM

In: Given Cc1ccc(/N=N/c2cc(C(=O)O)c(O)c3ccccc23)cc1S(N)(=O)=O , name the class its IC50 places it in.
Out: LOW

---

Biological target: UniProtKB Q04760
Experiment: Inhibition of recombinant human N-terminal Met and 6-His-tagged Glyoxalase-1 (Ala2 to Met184 residues) using glutathione and methylglyoxal as substrates preincubated for 15 mins followed by enzyme addition by double beam UV-vis spectrophotometric method
measurement kind: IC50

In the examples that follow, each entry is paired with its recorded IC50.
item smiles	assay target	recorded measurement
Cc1ccc(/N=N/c2ccc(N)c3cccc(O)c23)cc1S(N)(=O)=O	UniProtKB Q04760	> 100 µM
Cc1ccc(/N=N/c2ccc(N)c3ccccc23)cc1S(N)(=O)=O	UniProtKB Q04760	95.7 µM
NS(=O)(=O)c1cccc(/N=N/c2ccc(O)c3ncccc23)c1	UniProtKB Q04760	1.36 µM
Nc1ccc(/N=N/c2cccc(S(N)(=O)=O)c2)c2ccccc12	UniProtKB Q04760	85.8 µM
Nc1ccc(/N=N/c2cccc(S(N)(=O)=O)c2)c2ccc(O)cc12	UniProtKB Q04760	21.8 µM

In: For the record NS(=O)(=O)c1cccc(/N=N/c2cc3ccc(=O)oc3cc2O)c1 , what value of IC50 is listed for UniProtKB Q04760?
Out: 18.9 µM

In: For the record NS(=O)(=O)c1cccc(/N=N/c2ccc(O)c3ccccc23)c1 , what value of IC50 is listed for UniProtKB Q04760?
Out: 52.2 µM
